# reported %Inh; entries follow
tested on: SGK3; settings: concentration: 1 μM, replicates: in singlicate; n = 1;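 further: KINOMEscan kinase panel screen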
Please state the figure in %; there is no need to write the unit.

Record excerpt, results attached:
molecule	study.system	%Inh, %
Cn1cncc1-c1ccc2ncnc(Nc3ccc(OCc4ccccc4)cc3)c2c1 [GW320571]	SGK3	0
Cc1cccc(-c2nc(-c3ccc(S(C)(=O)=O)cc3)sc2-c2ccnc(NCCc3ccccc3)c2)c1	SGK3	0
CC(=O)Nc1nc2cnc(Nc3cc(NC(=O)c4cccc(CCC#N)c4)ccc3C)nc2s1	SGK3	7
O=C(Nc1n[nH]c2nc(-c3nccs3)c(Br)cc12)C1CC1 [SB-742251]	SGK3	0
Cc1ccc(NC(=O)Nc2cc(C(C)(C)C)nn2-c2ccccc2)cc1 [GSK1014915]	SGK3	0
Cn1ccc2ncnc(Oc3ccc(NC(=O)Nc4ccccc4)cc3)c21	SGK3	28
CCCc1ccc(S(=O)(=O)NC2CCN(c3ccnc(Nc4ccc(F)cc4)n3)C2)cc1 (stereo not drawn) [GSK1379715]	SGK3	0
Cn1ccc2ncnc(Oc3ccc(Nc4nc5ccccc5[nH]4)cc3)c21	SGK3	0

// moving on: another record for %Inh
Query: Suppose we examine the molecule Cc1cccc(-c2nc(C)cc(Nc3ccncc3)n2)n1 [GSK257997] ; what %Inh value has been reported?
Result: 6

From: paper PMC5540273
